# Species on record: Rattus norvegicus
# TEST SUMMARY: Open TG-GATES - Regimen: Single
# Assay type: toxicity, organism-based, Sprague-Dawley
# Design: regimen Single, gender Male, age 6 weeks
# MEASUREMENT CONDITIONS: in vivo, po, 0 mg/kg, 24 h, tissue Blood, route gavage, dose level Control
For each record, write down the corresponding Fbg.
Answers are plain numbers, in mg/dL.

{"columns": ["MOLECULE", "VALUE UNIT", "Fbg"],
 "data": [
  ["CCOC(=O)CCC(=O)O[C@H]1[C@H](O[C@@H]2[C@@H](C)[C@H](O[C@H]3C[C@@](C)(OC)[C@@H](O)[C@H](C)O3)[C@@H](C)C(=O)O[C@H](CC)[C@@](C)(O)[C@H](O)[C@@H](C)C(=O)[C@H](C)C[C@@]2(C)O)O[C@H](C)C[C@@H]1N(C)C [ERYTHROMYCIN ETHYLSUCCINATE]", "mg/dL", 327.8],
  ["CN1C(=O)CN=C(c2ccccc2)c2cc(Cl)ccc21", "mg/dL", 210.2],
  ["NC(N)=Nc1nc(CSCCC(N)=NS(N)(=O)=O)cs1", "mg/dL", 232.4]
]}

Respectfully, I request Fbg for each entry included below.
1. COC1=CC(=O)C[C@@H](C)[C@]12Oc1c(Cl)c(OC)cc(OC)c1C2=O
2. C[C@@H]1C[C@H]2[C@@H]3CCC4=CC(=O)C=C[C@]4(C)[C@@]3(F)[C@@H](O)C[C@]2(C)[C@@]1(O)C(=O)CO
3. COc1cc2c(c(OC)c1OC)-c1ccc(OC)c(=O)cc1[C@@H](NC(C)=O)CC2
4. Cc1ccc(C)c(OCCCC(C)(C)C(=O)O)c1
5. NNC(=O)c1ccncc1
6. CN(C)CCN(Cc1cccs1)c1ccccn1

1: 214.4; 2: 239.6; 3: 215.8; 4: 286; 5: 217.8; 6: 280.8

List the reported Fbg of each molecule below.
1. CC1=C(/C=C/C(C)=C/C=C/C(C)=C/CO)C(C)(C)CCC1
2. O=C(CCCN1CCC(O)(c2ccc(Cl)cc2)CC1)c1ccc(F)cc1
3. CCCNC(=O)NS(=O)(=O)c1ccc(Cl)cc1 [CHLORPROPAMIDE]
4. CC/C(=C(\c1ccccc1)c1ccc(OCCN(C)C)cc1)c1ccccc1
5. CN(C)CCCN1c2ccccc2CCc2ccc(Cl)cc21
6. CCOc1ccc(NC(=O)CC(C)O)cc1 (stereo not drawn)

294
205.8
277.8
258.4
257.8
290.6

Please give Fbg for each item listed below.
1. COc1ccc2[nH]c([S+]([O-])Cc3ncc(C)c(OC)c3C)nc2c1 (stereo not drawn)
2. CC(C)OC(=O)C(C)(C)Oc1ccc(C(=O)c2ccc(Cl)cc2)cc1 [FENOFIBRATE]
3. CN(C)CCCN1c2ccccc2CCc2ccccc21

229.6
281.4
265.2

---

# Organism: Rattus norvegicus
# TEST SUMMARY: Open TG-GATES - Regimen: Daily Repeat
# Format: toxicity, organism-based, Sprague-Dawley
# Design: regimen Daily Repeat, gender Male, age 6 weeks
# MEASUREMENT CONDITIONS: in vivo, po, 0 mg/kg, […], tissue Blood, route gavage, dose level Control, time 14 day
Label key: satisfied means Mono under 2%; not satisfied means Mono of 2% or more.

Solved cases (6 shown):
{"columns": ["COMPOUND", "ASSIGNED LABEL"],
 "data": [
  ["CCOC(=O)CCC(=O)O[C@H]1[C@H](O[C@@H]2[C@@H](C)[C@H](O[C@H]3C[C@@](C)(OC)[C@@H](O)[C@H](C)O3)[C@@H](C)C(=O)O[C@H](CC)[C@@](C)(O)[C@H](O)[C@@H](C)C(=O)[C@H](C)C[C@@]2(C)O)O[C@H](C)C[C@@H]1N(C)C [ERYTHROMYCIN ETHYLSUCCINATE]", "not satisfied"],
  ["NC(N)=Nc1nc(CSCCC(N)=NS(N)(=O)=O)cs1 [FAMOTIDINE]", "satisfied"],
  ["CC(C)OC(=O)C(C)(C)Oc1ccc(C(=O)c2ccc(Cl)cc2)cc1 [FENOFIBRATE]", "not satisfied"],
  ["CCOc1ccc(NC(=O)CC(C)O)cc1 (stereo not drawn) [BUCETIN]", "not satisfied"],
  ["CN(C)CCCN1c2ccccc2CCc2ccccc21 [IMIPRAMINE]", "satisfied"],
  ["O=C(CCCN1CCC(O)(c2ccc(Cl)cc2)CC1)c1ccc(F)cc1 [HALOPERIDOL]", "not satisfied"]
]}

Quick check: does COc1ccc2[nH]c([S+]([O-])Cc3ncc(C)c(OC)c3C)nc2c1 (stereo not drawn) [OMEPRAZOLE] have Mono under 2%?
not satisfied

Lab log: compare recorded Mono with 2%; is it strictly lower for CN1C(=O)CN=C(c2ccccc2)c2cc(Cl)ccc21 [DIAZEPAM] ?
not satisfied

# strict comparison: is reported Mono < 2%? input = NNC(=O)c1ccncc1 [ISONIAZID]
not satisfied

Just wondering, is Mono of COC1=CC(=O)C[C@@H](C)[C@]12Oc1c(Cl)c(OC)cc(OC)c1C2=O [GRISEOFULVIN] below 2%?
not satisfied

# strict comparison: is reported Mono < 2%? input = CCCNC(=O)NS(=O)(=O)c1ccc(Cl)cc1 [CHLORPROPAMIDE]
not satisfied
